Test system: A549
Assay: Antiproliferative activity against human A549 cells assessed as reduction in cell viability after 48 hrs by cck8 assay
Format: functional, cell-based
Details: A549, 48 h
Rule for this label: 1.0 means IC50 is less than 10 µM; 0.0 means IC50 is at least 10 µM.

Please indicate whether the reported IC50 of `CC(C)Oc1cc2ncnc(Nc3ccc(F)c(Cl)c3)c2c2c1OCCO2` is strictly below 10 µM.
0.0

Same thing, different molecule: `CCOc1cc2ncnc(Nc3ccc(F)c(Cl)c3)c2c2c1OCCO2`
0.0

// repeat for `CCOc1cc2ncnc(Nc3ccc(C)c(Cl)c3)c2c2c1OCCO2` and report
0.0

Moving on to the next molecule: C#Cc1cccc(Nc2ncnc3cc(OCCOC)c(OCCOC)cc23)c1 [ERLOTINIB]
1.0

Entry to check: `C#Cc1cccc(Nc2ncnc3cc(OC(C)C)c4c(c23)OCCO4)c1`
1.0

Please do the same for `COCCOc1cc2ncnc(Nc3ccc(F)c(Cl)c3)c2c2c1OCCO2` as well.
0.0

// query: `C#Cc1cccc(Nc2ncnc3cc(OCC)c4c(c23)OCCO4)c1`
0.0

Source: ChEMBL document CHEMBL3804755
